Field: PBM binding z-score. Provide a value for each of the sequences that follow.
Tested on: LXRb homodimer (NR concentration 270 nM)
Test: PBM binding z-score (relative to random genomic background probes); higher = stronger binding; sequences stand for … in GC…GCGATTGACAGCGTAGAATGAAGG
Write the value as a bare number.

Challenge: Would you kindly share the measured PBM binding z-score for "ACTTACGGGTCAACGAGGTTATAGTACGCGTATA" ?
Response given: 0.951

Challenge: Would you kindly share the measured PBM binding z-score for "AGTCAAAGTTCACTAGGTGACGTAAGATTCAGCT" ?
Response given: 0.835

Challenge: Would you kindly share the measured PBM binding z-score for "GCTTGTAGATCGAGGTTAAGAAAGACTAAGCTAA" ?
Response given: -0.682

Challenge: Would you kindly share the measured PBM binding z-score for "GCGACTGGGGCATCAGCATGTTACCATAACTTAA" ?
Response given: -0.493

Challenge: Would you kindly share the measured PBM binding z-score for "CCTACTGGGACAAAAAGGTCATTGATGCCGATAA" ?
Response given: 0.878

Challenge: Would you kindly share the measured PBM binding z-score for "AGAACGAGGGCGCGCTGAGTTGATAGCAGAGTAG" ?
Response given: -1.21

Challenge: Would you kindly share the measured PBM binding z-score for "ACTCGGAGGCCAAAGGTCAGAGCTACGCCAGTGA" ?
Response given: 0.134

Challenge: Would you kindly share the measured PBM binding z-score for "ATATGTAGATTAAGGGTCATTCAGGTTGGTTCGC" ?
Response given: 1.38

Challenge: Would you kindly share the measured PBM binding z-score for "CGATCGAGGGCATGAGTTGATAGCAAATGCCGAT" ?
Response given: -1.04

Challenge: Would you kindly share the measured PBM binding z-score for "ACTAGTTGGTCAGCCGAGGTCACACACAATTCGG" ?
Response given: 0.882

Challenge: Would you kindly share the measured PBM binding z-score for "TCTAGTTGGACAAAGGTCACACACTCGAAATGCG" ?
Response given: 1.83

Challenge: Would you kindly share the measured PBM binding z-score for "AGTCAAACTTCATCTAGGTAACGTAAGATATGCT" ?
Response given: 0.1

Challenge: Would you kindly share the measured PBM binding z-score for "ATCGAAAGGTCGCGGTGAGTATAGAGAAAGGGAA" ?
Response given: 0.371

Challenge: Would you kindly share the measured PBM binding z-score for "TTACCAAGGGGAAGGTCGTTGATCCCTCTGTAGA" ?
Response given: -0.862

Challenge: Would you kindly share the measured PBM binding z-score for "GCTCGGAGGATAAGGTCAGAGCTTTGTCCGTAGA" ?
Response given: -1.34

Challenge: Would you kindly share the measured PBM binding z-score for "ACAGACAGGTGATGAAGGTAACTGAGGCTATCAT" ?
Response given: -0.411

Challenge: Would you kindly share the measured PBM binding z-score for "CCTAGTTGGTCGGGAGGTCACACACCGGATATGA" ?
Response given: 1.04

Challenge: Would you kindly share the measured PBM binding z-score for "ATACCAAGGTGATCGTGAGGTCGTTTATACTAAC" ?
Response given: 0.0373

Challenge: Would you kindly share the measured PBM binding z-score for "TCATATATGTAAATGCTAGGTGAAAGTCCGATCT" ?
Response given: 0.139

Challenge: Would you kindly share the measured PBM binding z-score for "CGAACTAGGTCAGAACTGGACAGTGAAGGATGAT" ?
Response given: -0.439

Challenge: Would you kindly share the measured PBM binding z-score for "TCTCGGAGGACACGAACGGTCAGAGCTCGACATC" ?
Response given: -0.841

Challenge: Would you kindly share the measured PBM binding z-score for "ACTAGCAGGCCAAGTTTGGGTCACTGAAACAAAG" ?
Response given: -0.515

Challenge: Would you kindly share the measured PBM binding z-score for "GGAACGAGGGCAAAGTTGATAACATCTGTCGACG" ?
Response given: -0.18

Challenge: Would you kindly share the measured PBM binding z-score for "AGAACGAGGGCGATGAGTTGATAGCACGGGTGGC" ?
Response given: -0.754

Challenge: Would you kindly share the measured PBM binding z-score for "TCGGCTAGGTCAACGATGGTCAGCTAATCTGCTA" ?
Response given: -0.717

Challenge: Would you kindly share the measured PBM binding z-score for "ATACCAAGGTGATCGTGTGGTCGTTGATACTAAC" ?
Response given: -0.176

Challenge: Would you kindly share the measured PBM binding z-score for "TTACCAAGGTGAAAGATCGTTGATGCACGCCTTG" ?
Response given: -0.696

Challenge: Would you kindly share the measured PBM binding z-score for "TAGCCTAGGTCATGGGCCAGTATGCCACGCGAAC" ?
Response given: -0.474

Challenge: Would you kindly share the measured PBM binding z-score for "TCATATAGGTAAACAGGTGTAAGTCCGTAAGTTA" ?
Response given: -0.189

Challenge: Would you kindly share the measured PBM binding z-score for "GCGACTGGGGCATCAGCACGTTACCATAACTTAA" ?
Response given: -0.932

Challenge: Would you kindly share the measured PBM binding z-score for "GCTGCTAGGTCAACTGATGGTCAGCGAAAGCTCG" ?
Response given: -0.112

Challenge: Would you kindly share the measured PBM binding z-score for "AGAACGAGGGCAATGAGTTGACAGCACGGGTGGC" ?
Response given: -0.581

Challenge: Would you kindly share the measured PBM binding z-score for "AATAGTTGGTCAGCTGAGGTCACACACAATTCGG" ?
Response given: 1.05

Challenge: Would you kindly share the measured PBM binding z-score for "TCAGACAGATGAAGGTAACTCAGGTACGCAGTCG" ?
Response given: -0.545

Challenge: Would you kindly share the measured PBM binding z-score for "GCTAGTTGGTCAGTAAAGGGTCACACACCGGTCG" ?
Response given: 0.0328

Challenge: Would you kindly share the measured PBM binding z-score for "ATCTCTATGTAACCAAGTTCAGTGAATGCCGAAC" ?
Response given: 0.572

Challenge: Would you kindly share the measured PBM binding z-score for "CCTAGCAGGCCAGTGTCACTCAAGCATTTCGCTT" ?
Response given: -0.597

Challenge: Would you kindly share the measured PBM binding z-score for "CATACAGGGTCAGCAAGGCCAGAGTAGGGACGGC" ?
Response given: -0.0671

Challenge: Would you kindly share the measured PBM binding z-score for "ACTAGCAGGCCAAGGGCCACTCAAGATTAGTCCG" ?
Response given: -1.27

Challenge: Would you kindly share the measured PBM binding z-score for "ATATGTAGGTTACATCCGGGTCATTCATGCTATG" ?
Response given: 0.928

Challenge: Would you kindly share the measured PBM binding z-score for "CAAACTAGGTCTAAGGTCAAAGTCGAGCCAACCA" ?
Response given: 1.16

Challenge: Would you kindly share the measured PBM binding z-score for "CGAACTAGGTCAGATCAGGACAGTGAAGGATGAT" ?
Response given: -0.387

Challenge: Would you kindly share the measured PBM binding z-score for "CCAATTAGTTGACCATAAGGGCAACCGAAGCTCG" ?
Response given: 0.402

Challenge: Would you kindly share the measured PBM binding z-score for "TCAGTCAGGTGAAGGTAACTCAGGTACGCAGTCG" ?
Response given: 0.224

Challenge: Would you kindly share the measured PBM binding z-score for "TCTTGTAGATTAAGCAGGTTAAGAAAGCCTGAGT" ?
Response given: -0.31

Challenge: Would you kindly share the measured PBM binding z-score for "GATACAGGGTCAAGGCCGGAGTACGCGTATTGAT" ?
Response given: -0.495

Challenge: Would you kindly share the measured PBM binding z-score for "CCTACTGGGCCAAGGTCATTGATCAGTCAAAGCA" ?
Response given: -0.497

Challenge: Would you kindly share the measured PBM binding z-score for "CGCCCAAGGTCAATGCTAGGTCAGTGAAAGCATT" ?
Response given: 0.667

Challenge: Would you kindly share the measured PBM binding z-score for "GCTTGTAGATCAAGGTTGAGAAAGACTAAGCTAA" ?
Response given: -0.831

Challenge: Would you kindly share the measured PBM binding z-score for "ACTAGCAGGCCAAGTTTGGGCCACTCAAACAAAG" ?
Response given: -1.23

Challenge: Would you kindly share the measured PBM binding z-score for "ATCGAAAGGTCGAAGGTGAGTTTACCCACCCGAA" ?
Response given: 0.226
